molecular target: SNRK (human) (UniProt Q9NRH2); experiment: KINOMEscan competition binding; settings: compound 1.0 µM
Sequence (Q9NRH2 whole entry, looked up): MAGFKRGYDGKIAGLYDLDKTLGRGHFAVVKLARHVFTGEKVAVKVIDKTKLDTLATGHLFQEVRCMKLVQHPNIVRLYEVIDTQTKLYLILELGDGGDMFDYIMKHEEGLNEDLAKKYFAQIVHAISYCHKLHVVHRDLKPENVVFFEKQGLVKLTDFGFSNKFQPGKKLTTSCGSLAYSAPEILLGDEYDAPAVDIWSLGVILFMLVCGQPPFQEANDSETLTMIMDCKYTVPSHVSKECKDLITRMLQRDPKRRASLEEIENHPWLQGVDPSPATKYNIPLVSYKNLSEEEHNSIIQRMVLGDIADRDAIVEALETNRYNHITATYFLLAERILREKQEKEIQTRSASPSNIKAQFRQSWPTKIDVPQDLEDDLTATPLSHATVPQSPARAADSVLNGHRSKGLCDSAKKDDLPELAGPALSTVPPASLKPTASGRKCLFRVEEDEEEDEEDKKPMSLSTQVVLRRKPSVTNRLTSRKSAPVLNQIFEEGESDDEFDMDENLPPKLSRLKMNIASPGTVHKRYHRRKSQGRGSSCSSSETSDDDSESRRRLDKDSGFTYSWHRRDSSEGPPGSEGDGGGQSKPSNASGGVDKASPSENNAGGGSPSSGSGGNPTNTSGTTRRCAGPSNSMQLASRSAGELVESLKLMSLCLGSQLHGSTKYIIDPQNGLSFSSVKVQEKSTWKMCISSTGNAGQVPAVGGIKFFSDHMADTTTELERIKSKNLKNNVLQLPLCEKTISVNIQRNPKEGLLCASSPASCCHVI
measurement.name: kinase still bound, per cent of control (%)
Numeric only. Scale: %

Problem: Quick one: kinase still bound, per cent of control of CN(C)C/C=C/C(=O)Nc1cccc(C(=O)Nc2ccc(Nc3nccc(/C(C#N)=C4\Nc5ccccc5S4)n3)cc2)c1 ?
Solution: 100

Problem: Quick one: kinase still bound, per cent of control of CN(C)C/C=C/C(=O)Nc1cccc(C(=O)Nc2ccc(Nc3nccc(-c4cccnc4)n3)cc2)c1 ?
Solution: 90

Problem: Quick one: kinase still bound, per cent of control of CN(C)C/C=C/C(=O)Nc1cccc(C(=O)Nc2ccc(Nc3nccc(-c4c(-c5ccccc5)nn5ccccc45)n3)cc2)c1 ?
Solution: 100

Problem: Quick one: kinase still bound, per cent of control of Cc1cc(NC(=O)c2cccc(NC(=O)/C=C/CN(C)C)c2)ccc1Nc1nccc(-c2cccnc2)n1 ?
Solution: 100

----------
target: FLT3 (human) (UniProt P36888); assay: KINOMEscan competition binding; conditions: compound 1.0 µM
Sequence (P36888 whole entry, looked up): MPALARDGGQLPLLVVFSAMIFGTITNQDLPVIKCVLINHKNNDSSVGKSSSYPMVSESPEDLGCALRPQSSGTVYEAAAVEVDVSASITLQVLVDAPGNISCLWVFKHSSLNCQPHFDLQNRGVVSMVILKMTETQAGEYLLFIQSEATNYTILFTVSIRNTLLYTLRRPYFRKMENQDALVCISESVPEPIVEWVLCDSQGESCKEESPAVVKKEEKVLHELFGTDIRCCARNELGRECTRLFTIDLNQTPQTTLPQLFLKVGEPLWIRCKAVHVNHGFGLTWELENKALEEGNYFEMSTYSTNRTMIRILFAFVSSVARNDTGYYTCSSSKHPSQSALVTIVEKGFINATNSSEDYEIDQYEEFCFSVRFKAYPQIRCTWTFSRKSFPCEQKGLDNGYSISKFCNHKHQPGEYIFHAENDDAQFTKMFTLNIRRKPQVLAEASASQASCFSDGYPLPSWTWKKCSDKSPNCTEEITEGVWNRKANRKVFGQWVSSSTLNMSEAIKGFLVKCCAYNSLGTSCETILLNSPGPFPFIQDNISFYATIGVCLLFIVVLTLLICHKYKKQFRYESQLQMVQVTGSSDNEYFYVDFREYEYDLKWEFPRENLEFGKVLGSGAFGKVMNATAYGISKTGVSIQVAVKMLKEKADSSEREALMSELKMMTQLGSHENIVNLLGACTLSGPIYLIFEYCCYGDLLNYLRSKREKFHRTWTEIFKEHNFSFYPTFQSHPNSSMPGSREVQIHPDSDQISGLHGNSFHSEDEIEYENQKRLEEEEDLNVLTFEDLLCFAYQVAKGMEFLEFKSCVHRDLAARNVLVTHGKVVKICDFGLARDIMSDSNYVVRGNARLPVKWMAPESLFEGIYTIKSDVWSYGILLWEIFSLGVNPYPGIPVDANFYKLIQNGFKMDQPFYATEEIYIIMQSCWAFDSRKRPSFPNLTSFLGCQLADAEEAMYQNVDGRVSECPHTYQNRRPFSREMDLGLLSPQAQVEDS
Please respond with reported kinase still bound, per cent of control for every item in the list.
Numeric only. Scale: %

Problem: Quick one: kinase still bound, per cent of control of Cc1cc(NC(=O)c2cccc(NC(=O)/C=C/CN(C)C)c2)ccc1Nc1nccc(-c2cccnc2)n1 ?
Solution: 77

Problem: Quick one: kinase still bound, per cent of control of CN(C)C/C=C/C(=O)Nc1cccc(C(=O)Nc2ccc(Nc3nccc(-c4c(-c5ccccc5)nn5ccccc45)n3)cc2)c1 ?
Solution: 1

Problem: Quick one: kinase still bound, per cent of control of CN(C)C/C=C/C(=O)Nc1cccc(C(=O)Nc2ccc(Nc3nccc(-c4cccnc4)n3)cc2)c1 ?
Solution: 64

Problem: Quick one: kinase still bound, per cent of control of CN(C)C/C=C/C(=O)Nc1cccc(C(=O)Nc2ccc(Nc3nccc(/C(C#N)=C4\Nc5ccccc5S4)n3)cc2)c1 ?
Solution: 23

----------
target: NEK9 (human) (UniProt Q8TD19); assay: KINOMEscan competition binding; conditions: compound 1.0 µM
Sequence (Q8TD19 whole entry, looked up): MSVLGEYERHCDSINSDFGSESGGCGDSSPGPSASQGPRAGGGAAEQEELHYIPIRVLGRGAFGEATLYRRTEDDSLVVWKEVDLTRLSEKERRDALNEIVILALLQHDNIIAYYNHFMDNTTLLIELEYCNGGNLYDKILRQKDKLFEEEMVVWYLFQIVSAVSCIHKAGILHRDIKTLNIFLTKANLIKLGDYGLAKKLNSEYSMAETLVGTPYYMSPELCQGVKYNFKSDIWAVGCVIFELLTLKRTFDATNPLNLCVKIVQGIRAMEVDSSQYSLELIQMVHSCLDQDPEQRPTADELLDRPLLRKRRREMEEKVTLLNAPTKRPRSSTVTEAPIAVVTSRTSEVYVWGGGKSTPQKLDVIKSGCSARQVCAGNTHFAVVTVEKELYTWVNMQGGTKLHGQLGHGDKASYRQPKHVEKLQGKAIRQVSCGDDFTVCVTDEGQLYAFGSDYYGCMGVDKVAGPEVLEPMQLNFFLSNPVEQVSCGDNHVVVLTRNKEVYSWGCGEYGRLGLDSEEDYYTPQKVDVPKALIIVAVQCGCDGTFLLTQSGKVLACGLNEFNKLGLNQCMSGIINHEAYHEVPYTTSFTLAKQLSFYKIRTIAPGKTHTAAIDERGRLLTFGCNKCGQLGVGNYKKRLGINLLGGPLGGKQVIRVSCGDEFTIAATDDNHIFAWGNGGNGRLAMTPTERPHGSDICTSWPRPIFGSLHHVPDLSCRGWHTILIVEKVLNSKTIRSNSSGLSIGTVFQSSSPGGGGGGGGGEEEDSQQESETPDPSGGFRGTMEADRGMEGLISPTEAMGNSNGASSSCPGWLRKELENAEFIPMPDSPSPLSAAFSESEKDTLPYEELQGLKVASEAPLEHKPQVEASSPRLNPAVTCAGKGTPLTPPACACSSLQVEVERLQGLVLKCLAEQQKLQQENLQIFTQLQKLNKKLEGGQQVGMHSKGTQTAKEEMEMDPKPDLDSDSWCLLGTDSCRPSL
measurement.name: kinase still bound, per cent of control

Problem: Quick one: kinase still bound, per cent of control of CN(C)C/C=C/C(=O)Nc1cccc(C(=O)Nc2ccc(Nc3nccc(-c4cccnc4)n3)cc2)c1 ?
Solution: 48%

Problem: Quick one: kinase still bound, per cent of control of Cc1cc(NC(=O)c2cccc(NC(=O)/C=C/CN(C)C)c2)ccc1Nc1nccc(-c2cccnc2)n1 ?
Solution: 100%

Problem: Quick one: kinase still bound, per cent of control of CN(C)C/C=C/C(=O)Nc1cccc(C(=O)Nc2ccc(Nc3nccc(-c4c(-c5ccccc5)nn5ccccc45)n3)cc2)c1 ?
Solution: 100%

Problem: Quick one: kinase still bound, per cent of control of CN(C)C/C=C/C(=O)Nc1cccc(C(=O)Nc2ccc(Nc3nccc(/C(C#N)=C4\Nc5ccccc5S4)n3)cc2)c1 ?
Solution: 100%

----------
Please respond with reported kinase still bound, per cent of control for every item in the list.
target: ICK (human); assay: KINOMEscan competition binding; conditions: compound 1.0 µM
Numeric only. Scale: %

Problem: Notebook entry, ICK (human) assay: kinase still bound, per cent of control of Cc1cc(NC(=O)c2cccc(NC(=O)/C=C/CN(C)C)c2)ccc1Nc1nccc(-c2cccnc2)n1 = ?
Solution: 92

Problem: Notebook entry, ICK (human) assay: kinase still bound, per cent of control of CN(C)C/C=C/C(=O)Nc1cccc(C(=O)Nc2ccc(Nc3nccc(-c4c(-c5ccccc5)nn5ccccc45)n3)cc2)c1 = ?
Solution: 100

Problem: Notebook entry, ICK (human) assay: kinase still bound, per cent of control of CN(C)C/C=C/C(=O)Nc1cccc(C(=O)Nc2ccc(Nc3nccc(/C(C#N)=C4\Nc5ccccc5S4)n3)cc2)c1 = ?
Solution: 100

Problem: Notebook entry, ICK (human) assay: kinase still bound, per cent of control of CN(C)C/C=C/C(=O)Nc1cccc(C(=O)Nc2ccc(Nc3nccc(-c4cccnc4)n3)cc2)c1 = ?
Solution: 3.4

----------
biological target: TAOK1 (human); assay: KINOMEscan competition binding; conditions: compound 1.0 µM
measurement.name: kinase still bound, per cent of control (%)
Numeric only. Scale: %

Problem: Quick one: kinase still bound, per cent of control of CN(C)C/C=C/C(=O)Nc1cccc(C(=O)Nc2ccc(Nc3nccc(/C(C#N)=C4\Nc5ccccc5S4)n3)cc2)c1 ?
Solution: 74

Problem: Quick one: kinase still bound, per cent of control of CN(C)C/C=C/C(=O)Nc1cccc(C(=O)Nc2ccc(Nc3nccc(-c4cccnc4)n3)cc2)c1 ?
Solution: 13

Problem: Quick one: kinase still bound, per cent of control of Cc1cc(NC(=O)c2cccc(NC(=O)/C=C/CN(C)C)c2)ccc1Nc1nccc(-c2cccnc2)n1 ?
Solution: 67

Problem: Quick one: kinase still bound, per cent of control of CN(C)C/C=C/C(=O)Nc1cccc(C(=O)Nc2ccc(Nc3nccc(-c4c(-c5ccccc5)nn5ccccc45)n3)cc2)c1 ?
Solution: 40

----------
biological target: UniProtKB Q8NG66; test: KINOMEscan competition binding; conditions: compound 1.0 µM
Sequence (Q8NG66 whole entry, looked up): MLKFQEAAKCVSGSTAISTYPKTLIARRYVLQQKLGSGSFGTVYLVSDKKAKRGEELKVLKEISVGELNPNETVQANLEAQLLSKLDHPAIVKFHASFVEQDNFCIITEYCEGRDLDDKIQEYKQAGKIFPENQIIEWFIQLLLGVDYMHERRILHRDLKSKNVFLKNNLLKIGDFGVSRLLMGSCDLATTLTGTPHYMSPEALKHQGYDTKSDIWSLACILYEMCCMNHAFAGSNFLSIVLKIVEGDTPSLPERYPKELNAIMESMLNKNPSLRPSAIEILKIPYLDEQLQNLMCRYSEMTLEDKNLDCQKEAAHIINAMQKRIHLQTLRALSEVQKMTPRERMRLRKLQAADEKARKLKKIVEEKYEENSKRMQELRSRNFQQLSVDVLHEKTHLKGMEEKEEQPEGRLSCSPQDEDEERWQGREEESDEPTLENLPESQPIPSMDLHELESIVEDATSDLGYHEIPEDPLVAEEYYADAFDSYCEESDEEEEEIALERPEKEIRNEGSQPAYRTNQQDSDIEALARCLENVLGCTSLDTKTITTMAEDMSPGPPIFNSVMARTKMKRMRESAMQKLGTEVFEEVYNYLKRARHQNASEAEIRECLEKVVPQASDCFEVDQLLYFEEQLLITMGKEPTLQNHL
Please respond with reported kinase still bound, per cent of control for every item in the list.
Numeric only. Scale: %

Problem: Quick one: kinase still bound, per cent of control of CN(C)C/C=C/C(=O)Nc1cccc(C(=O)Nc2ccc(Nc3nccc(/C(C#N)=C4\Nc5ccccc5S4)n3)cc2)c1 ?
Solution: 100

Problem: Quick one: kinase still bound, per cent of control of CN(C)C/C=C/C(=O)Nc1cccc(C(=O)Nc2ccc(Nc3nccc(-c4cccnc4)n3)cc2)c1 ?
Solution: 86

Problem: Quick one: kinase still bound, per cent of control of Cc1cc(NC(=O)c2cccc(NC(=O)/C=C/CN(C)C)c2)ccc1Nc1nccc(-c2cccnc2)n1 ?
Solution: 99

Problem: Quick one: kinase still bound, per cent of control of CN(C)C/C=C/C(=O)Nc1cccc(C(=O)Nc2ccc(Nc3nccc(-c4c(-c5ccccc5)nn5ccccc45)n3)cc2)c1 ?
Solution: 100

----------
target: NEK7 (human) (UniProt Q8TDX7); experiment: KINOMEscan competition binding; conditions: compound 1.0 µM
Sequence (Q8TDX7 whole entry, looked up): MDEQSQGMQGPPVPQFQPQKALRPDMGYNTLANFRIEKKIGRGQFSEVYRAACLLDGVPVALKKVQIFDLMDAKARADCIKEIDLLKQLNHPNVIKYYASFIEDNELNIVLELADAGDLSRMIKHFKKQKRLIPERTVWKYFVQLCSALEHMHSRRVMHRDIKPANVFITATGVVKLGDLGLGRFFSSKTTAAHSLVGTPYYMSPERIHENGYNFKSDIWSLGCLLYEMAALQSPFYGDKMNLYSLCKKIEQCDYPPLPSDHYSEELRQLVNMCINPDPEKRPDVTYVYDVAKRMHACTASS
measurement.name: kinase still bound, per cent of control (%)
Numeric only. Scale: %

Problem: Quick one: kinase still bound, per cent of control of Cc1cc(NC(=O)c2cccc(NC(=O)/C=C/CN(C)C)c2)ccc1Nc1nccc(-c2cccnc2)n1 ?
Solution: 100

Problem: Quick one: kinase still bound, per cent of control of CN(C)C/C=C/C(=O)Nc1cccc(C(=O)Nc2ccc(Nc3nccc(-c4cccnc4)n3)cc2)c1 ?
Solution: 7

Problem: Quick one: kinase still bound, per cent of control of CN(C)C/C=C/C(=O)Nc1cccc(C(=O)Nc2ccc(Nc3nccc(/C(C#N)=C4\Nc5ccccc5S4)n3)cc2)c1 ?
Solution: 100

Problem: Quick one: kinase still bound, per cent of control of CN(C)C/C=C/C(=O)Nc1cccc(C(=O)Nc2ccc(Nc3nccc(-c4c(-c5ccccc5)nn5ccccc45)n3)cc2)c1 ?
Solution: 100

----------
Please respond with reported kinase still bound, per cent of control for every item in the list.
target: RAF1 (human) (UniProt P04049); experiment: KINOMEscan competition binding; details: compound 1.0 µM
Sequence (P04049 whole entry, looked up): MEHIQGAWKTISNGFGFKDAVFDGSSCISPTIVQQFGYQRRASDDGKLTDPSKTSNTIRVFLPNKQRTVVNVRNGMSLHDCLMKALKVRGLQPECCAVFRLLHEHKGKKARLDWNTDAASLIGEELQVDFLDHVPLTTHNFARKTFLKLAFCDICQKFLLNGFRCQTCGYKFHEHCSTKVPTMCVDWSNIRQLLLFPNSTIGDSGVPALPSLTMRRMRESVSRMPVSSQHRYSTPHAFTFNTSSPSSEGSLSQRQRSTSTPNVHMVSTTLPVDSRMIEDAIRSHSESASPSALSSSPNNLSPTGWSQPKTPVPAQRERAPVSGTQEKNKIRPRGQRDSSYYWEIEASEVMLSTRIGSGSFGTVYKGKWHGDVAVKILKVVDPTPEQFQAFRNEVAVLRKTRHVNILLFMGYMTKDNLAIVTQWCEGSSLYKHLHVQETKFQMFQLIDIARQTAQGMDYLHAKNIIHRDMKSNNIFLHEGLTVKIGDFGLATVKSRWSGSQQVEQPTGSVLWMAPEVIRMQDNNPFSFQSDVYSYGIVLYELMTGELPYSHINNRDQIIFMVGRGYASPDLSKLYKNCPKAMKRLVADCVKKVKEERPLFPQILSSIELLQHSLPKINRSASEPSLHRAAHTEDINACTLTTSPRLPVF
Numeric only. Scale: %

Problem: Quick one: kinase still bound, per cent of control of CN(C)C/C=C/C(=O)Nc1cccc(C(=O)Nc2ccc(Nc3nccc(-c4c(-c5ccccc5)nn5ccccc45)n3)cc2)c1 ?
Solution: 83

Problem: Quick one: kinase still bound, per cent of control of Cc1cc(NC(=O)c2cccc(NC(=O)/C=C/CN(C)C)c2)ccc1Nc1nccc(-c2cccnc2)n1 ?
Solution: 93

Problem: Quick one: kinase still bound, per cent of control of CN(C)C/C=C/C(=O)Nc1cccc(C(=O)Nc2ccc(Nc3nccc(/C(C#N)=C4\Nc5ccccc5S4)n3)cc2)c1 ?
Solution: 91

Problem: Quick one: kinase still bound, per cent of control of CN(C)C/C=C/C(=O)Nc1cccc(C(=O)Nc2ccc(Nc3nccc(-c4cccnc4)n3)cc2)c1 ?
Solution: 100

----------
target: HIPK4 (human) (UniProt Q8NE63)
Sequence (Q8NE63 whole entry, looked up): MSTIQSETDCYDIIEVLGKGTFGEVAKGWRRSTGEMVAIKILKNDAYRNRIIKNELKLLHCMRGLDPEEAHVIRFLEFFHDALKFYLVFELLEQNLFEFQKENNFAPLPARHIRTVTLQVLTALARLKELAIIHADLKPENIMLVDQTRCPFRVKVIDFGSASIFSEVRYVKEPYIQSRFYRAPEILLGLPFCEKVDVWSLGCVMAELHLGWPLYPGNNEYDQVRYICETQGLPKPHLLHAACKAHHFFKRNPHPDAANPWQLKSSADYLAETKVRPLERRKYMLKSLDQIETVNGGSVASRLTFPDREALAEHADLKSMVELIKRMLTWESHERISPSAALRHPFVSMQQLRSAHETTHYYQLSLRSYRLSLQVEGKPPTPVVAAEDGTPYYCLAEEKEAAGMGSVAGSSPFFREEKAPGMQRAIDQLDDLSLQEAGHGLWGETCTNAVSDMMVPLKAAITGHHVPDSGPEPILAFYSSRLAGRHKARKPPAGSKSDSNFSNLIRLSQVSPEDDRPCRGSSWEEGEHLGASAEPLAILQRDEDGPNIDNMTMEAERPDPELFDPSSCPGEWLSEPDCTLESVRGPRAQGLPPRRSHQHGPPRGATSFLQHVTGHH
measurement.name: IC50 (µM)
Numeric only. Scale: µM

Problem: Quick one: IC50 of Cc1cc(NC(=O)c2cccc(NC(=O)/C=C/CN(C)C)c2)ccc1Nc1nccc(-c2cccnc2)n1 ?
Solution: 8.97

----------
molecular target: EPHA8 (human); experiment: KINOMEscan competition binding; conditions: compound 1.0 µM
Please respond with reported kinase still bound, per cent of control for every item in the list.
Numeric only. Scale: %

Problem: Quick one: kinase still bound, per cent of control of CN(C)C/C=C/C(=O)Nc1cccc(C(=O)Nc2ccc(Nc3nccc(-c4cccnc4)n3)cc2)c1 ?
Solution: 90

Problem: Quick one: kinase still bound, per cent of control of CN(C)C/C=C/C(=O)Nc1cccc(C(=O)Nc2ccc(Nc3nccc(-c4c(-c5ccccc5)nn5ccccc45)n3)cc2)c1 ?
Solution: 39

Problem: Quick one: kinase still bound, per cent of control of CN(C)C/C=C/C(=O)Nc1cccc(C(=O)Nc2ccc(Nc3nccc(/C(C#N)=C4\Nc5ccccc5S4)n3)cc2)c1 ?
Solution: 100

Problem: Quick one: kinase still bound, per cent of control of Cc1cc(NC(=O)c2cccc(NC(=O)/C=C/CN(C)C)c2)ccc1Nc1nccc(-c2cccnc2)n1 ?
Solution: 100
